- target-of-assay: VIM-1 (Pseudomonas aeruginosa, UniProt A0A0F7KYQ8)
- experimental-protocol: Enzyme activity: determination of IC50, fluorescence assay with CCF2-FA substrate
- Type: biochemical
- condition-notes: enzyme 30 pM, CCF2-FA 1.25 μM, 2 hours at 25° C.; read-out: VIM1 IC50
pIC50: −log10 of the molar value.
Quick rule for you: pIC50 at 8 or higher means 1 (yes), lower means 0 (no).

Is reported pIC50 greater than or equal to 8 here: CCC[C@H](C(=O)O)[C@H](Cc1ccc(N2CCN3CCCC3C2)cc1)c1nn[nH]n1 (some centres unmarked)
0 (no)

Please tell me: is the molecule `CCC[C@H](C(=O)O)[C@H](Cc1ccc(-c2ccncc2)cc1)c1nn[nH]n1` at or over 8 in terms of pIC50?
1 (yes)

API: above_or_equal(metric=pIC50, cutoff=8) for item `CC(C)[C@H](C(=O)O)[C@H](CC1CCNCC1)c1nnn[nH]1`
0 (no)

Check the entry `CCC[C@H](C(=O)O)[C@H](Cc1ccncc1)c1nnn[nH]1` : does pIC50 equal or exceed 8?
1 (yes)

Quick check, pIC50 >= 8? `CCC[C@H](C(=O)O)[C@H](Cc1ccc(-c2ccc3ncnn3c2)cc1)c1nnn[nH]1`
1 (yes)

Identify whether the reported pIC50 of the following molecule is 8 or greater: `CCC[C@H](C(=O)O)[C@H](Cc1ccc(C(F)(F)F)cc1)c1nnn[nH]1`
1 (yes)

====

Exercise: state measured pIC50 for each of the molecules provided.
- target-of-assay: VIM-1 (Pseudomonas aeruginosa)
- experimental-protocol: Enzyme activity: determination of IC50, fluorescence assay with CCF2-FA substrate
- Assay type: biochemical
- condition-notes: VIM-1 enzyme 30 pM, CCF2-FA 1.25 μM, 2 hours at 25° C.; read-out: VIM1 IC50
Hey, just a heads up that pIC50 is the negative log base 10 of the concentration in molar.

Please list pIC50 recorded for the molecule CCC[C@H](C(=O)O)[C@H](Cc1cccc(-c2ccc(N3CCOCC3)nc2)c1)c1nn[nH]n1 [Example 346]
8.66

Consider the molecule CC(C)C[C@H](C(=O)O)[C@H](Cc1ccc(CN2CCNCC2)c(F)c1)c1nn[nH]n1.O=C(O)C(F)(F)F [Example 446, 2,2,2-trifluoroacetate] . State its measured pIC50.
8.16

Please supply the value of reported pIC50 for the item CCC[C@H](C(=O)[O-])[C@H](Cc1ccc(C[N+](C)(C)C)cc1)c1nnn[nH]1 [Example 419]
8.26

Please supply the value of reported pIC50 for the item CCC[C@H](C(=O)O)[C@H](Cc1ccc(Br)s1)c1nnn[nH]1 [Example 425]
8.44

Give reported pIC50 value for CCC[C@H](C(=O)O)[C@H](Cc1cccc(-c2cnc(N)c(F)c2)c1)c1nn[nH]n1 [Example 356]
8.82

Provide only the value of recorded pIC50 for CCC[C@H](C(=O)O)[C@H](Cc1cccc(N2CCC[C@H](N)C2)c1)c1nn[nH]n1 [Example 366]
7.89

Fill in pIC50 for record CC(C)C[C@H](C(=O)O)[C@H](Cc1ccc(Oc2ccc(C(C)N)nc2)nc1)c1nn[nH]n1 (stereo partly shown) [Example 380]
8.62

Please report pIC50 for the following molecule: CC(C)C[C@H](C(=O)O)[C@H](Cc1ccc(Oc2cccc(CN)c2)nc1)c1nn[nH]n1 [Example 400]
7.38

State its pIC50 for this molecule: CCC[C@H](C(=O)O)[C@H](Cc1ccc(-c2ccc3c(c2)CNC3)cc1)c1nnn[nH]1 [Example 245]
8.43

Give a short answer stating reported pIC50 for CCC[C@H](C(=O)O)[C@H](Cc1ccccc1-c1ccc(CO)cc1)c1nn[nH]n1 [Example 403] .
8.48

Give recorded pIC50. CCC[C@H](C(=O)O)[C@H](Cc1ccc(C(=O)NCCN)cc1)c1nnn[nH]1 [Example 276]
8.08

# return recorded pIC50 for input CCC[C@H](C(=O)[O-])[C@H](Cc1ccc(C2=CC[N+](C)(C)CC2)cc1)c1nnn[nH]1 [Example 295]
5.80

Tell us which pIC50 value is on record for CC(C)C[C@H](C(=O)O)[C@H](Cc1ccc(N2CC(CO)(CO)C2)nc1)c1nnn[nH]1 [Example 330]
7.66

// Input: CCC[C@H](C(=O)O)[C@H](Cc1cccc(N2CCN(C)CC2)c1)c1nn[nH]n1 [Example 362] . Output its pIC50 only.
8.00

Check the records and state pIC50 for CCC[C@H](C(=O)O)[C@H](Cc1ccc(C2=CCCNC2)cc1)c1nn[nH]n1 [Example 302]
7.74

Using known records, supply pIC50 for CCC[C@H](C(=O)O)[C@H](Cc1ccc2c(c1)CNC2)c1nnn[nH]1 [Example 437]
8.76

Reference for the values: patent US9839642B2
